Origin of the recorded values: paper PMC4433859

testTarget: HLA-B*42:01 (Homo sapiens, UniProt P01889, D138N/E176V/E187T/K202T/R180D)
methodSummary: biochemical
Format: binding
pKd: −log10 of the molar value. Where no end group is shown, it is not given here.
recordedEndpoint: pKd

[[record]]
querysequence = "IIKDYGKQM [Int-IM9]"
reported = 7.72

